These measurements were taken from patent EP4768499A1.

# measurement-protocol: Metabolic stability test: liver microsomal stability assay
# Type: in vitro ADME, mouse
# condition-notes: male, pH 7.4; mouse liver microsomes 0.5 mg protein/mL, compound 1 µM, presence of NADPH; read-out: Mouse Hepatic Microsome CLh,int NADPH(+)
Positions of bridges follow the written chain, without caps; N, C: chain ends. Non-standard residues stand in square brackets, D forms with d. Residues, ends and D or L forms follow the SMILES beside them. *: point of attachment. NMeF = CN[C@@H](Cc1ccccc1)C(=O)O; NMeT = CN[C@H](C(=O)O)[C@@H](C)O; hPhe = N[C@@H](CCc1ccccc1)C(=O)O; NMeD = CN[C@@H](CC(=O)O)C(=O)O; NMeL = CN[C@@H](CC(C)C)C(=O)O; NMeV = CN[C@H](C(=O)O)C(C)C; NMeAbu = CC[C@H](NC)C(=O)O; NMeA = CN[C@@H](C)C(=O)O; Piperidide = C1CCN(*)CC1; Abu = CC[C@H](N)C(=O)O; NBuGly = CCCCNCC(=O)O; Sar = CNCC(=O)O; tBu = CC(C)(C)*
Give measured microsomal CLint at 1 µM for each item. Keep answers brief.
The number alone won't do; follow it with the unit.

molecule	microsomal CLint at 1 µM
CC[C@@H]1NC(=O)[C@H](Cc2ccccc2)N(C)C(=O)[C@H](COC(C)(C)C)NC(=O)[C@H](CC(C)C)N(C)C(=O)[C@H](CC(C)C)NC(=O)[C@H](C)N(C)C(=O)C[C@@H](C(=O)N2CCCCC2)N(C)C(=O)[C@H](CC(C)C)N(C)C(=O)[C@H]([C@@H](C)CC)NC(=O)[C@H](Cc2ccccc2)N(C)C(=O)[C@H]([C@@H](C)O)N(C)C(=O)[C@H](CC)N(C)C(=O)[C@H](CC(C)C)NC(=O)CN(C)C1=O [pd091] ([NMeA]L[NMeL]S(tBu)[NMeF][Abu][Sar]L[NMeAbu][NMeT][NMeF]I[NMeL][NMeD]-Piperidide; lactam N-14)	39.4 µL/min/mg

Consider the additional molecule presented here.
Given the molecule CCCCN1CC(=O)N(C)[C@@H](CC(C)C)C(=O)N[C@@H]([C@@H](C)O)C(=O)N(C)[C@@H](CC(C)C)C(=O)N2CCC[C@H]2C(=O)N[C@@H](CCc2ccccc2)C(=O)N[C@@H]([C@@H](C)CC)C(=O)N(C)[C@H](C(=O)N2CCCCC2)CC(=O)N(C)[C@@H](CC(C)C)C(=O)N[C@@H](COC(C)(C)C)C(=O)N(C)[C@@H](C(C)C)C(=O)N[C@@H]([C@@H](C)CC)C(=O)N2CCC[C@H]2C1=O [pd159] ([NMeL]S(tBu)[NMeV]IP[NBuGly][NMeL]T[NMeL]P[hPhe]I[NMeD]-Piperidide; lactam N-13) , write its reported microsomal CLint at 1 µM.
49.5 µL/min/mg

---

Give measured Mouse Hepatic Microsome CLh,int NADPH(-) for each item. Keep answers brief.
# measurement-protocol: Metabolic stability test: liver microsomal stability assay
# Format: in vitro ADME, mouse
# condition-notes: mouse liver microsomes 0.5 mg protein/mL, compound 1 µM, absence of NADPH
Starred links: 1 amine or outer side, 2 acyl side, 3 side chain; linkers in the order of their positions; H or OH if unused. Non-standard residues stand in square brackets, D forms with d. Residues, ends and D or L forms follow the SMILES beside them. *: point of attachment. NMedβ3hAla = C[C@H](CC(=O)[*:2])N(C)[*:1]; NMeF = CN[C@@H](Cc1ccccc1)C(=O)O; NMeI = CC[C@H](C)[C@H](NC)C(=O)O; NMeT = CN[C@H](C(=O)O)[C@@H](C)O; NMeL = CN[C@@H](CC(C)C)C(=O)O; NMeV = CN[C@H](C(=O)O)C(C)C; d(β3hA) = C[C@@H](N)CC(=O)O; NMeAbu = CC[C@H](NC)C(=O)O; NMeA = CN[C@@H](C)C(=O)O; Abu = CC[C@H](N)C(=O)O; Sar = CNCC(=O)O; tBu = CC(C)(C)*
Numbers only, in µL/min/mg Protein.

compound	assay-value
CC[C@@H]1NC(=O)[C@H](CC(C)C)N(C)C(=O)[C@H]([C@@H](C)CC)NC(=O)[C@H](CC(C)C)N(C)C(=O)C[C@@H](C)NC(=O)[C@H](C(C)C)N(C)C(=O)[C@H](CC(C)C)NC(=O)[C@H](CC)N(C)C(=O)[C@H](Cc2ccccc2)N(C)C(=O)[C@@H]2CCCN2C(=O)[C@H](CC(C)C)NC(=O)[C@H]([C@@H](C)O)N(C)C(=O)[C@H](CC(C)C)N(C)C1=O [pd135] (cyclo([Abu][NMeL][NMeT]LP[NMeF][NMeAbu]L[NMeV][d(β3hA)][NMeL]I[NMeL]))	28.4

For every item in the list below, what is its measured Mouse Hepatic Microsome CLh,int NADPH(-)?
1. CC[C@H](C)[C@@H]1NC(=O)[C@H](CC(C)C)N(C)C(=O)[C@H](CC(C)C)NC(=O)[C@H](C)N(C)C(=O)C[C@@H](C)NC(=O)CN(C)C(=O)[C@H](CC(C)C)N(C)C(=O)[C@H]([C@@H](C)O)NC(=O)[C@H](C(C)C)NC(=O)[C@H]([C@@H](C)CC)N(C)C(=O)[C@H](COC(C)(C)C)NC(=O)[C@H](CC(C)C)N(C)C(=O)[C@H](C)NC(=O)[C@H](Cc2ccccc2)N(C)C1=O [pd009] (cyclo(A[NMeL]S(tBu)[NMeI]VT[NMeL][Sar][d(β3hA)][NMeA]L[NMeL]I[NMeF]))
2. CC[C@@H]1NC(=O)[C@H](Cc2ccccc2)N(C)C(=O)[C@@H]2CCCN2C(=O)[C@H](CC(C)C)N(C)C(=O)[C@H](C(C)C)NC(=O)[C@H](CC(C)C)N(C)C(=O)[C@H]([C@@H](C)O)NC(=O)[C@H](Cc2ccccc2)N(C)C(=O)CN(C)C(=O)C[C@@H](C)N(C)C(=O)[C@H](C(C)C)NC(=O)[C@H](COC(C)(C)C)NC(=O)[C@H](C)N(C)C1=O [pd146] (cyclo([Abu][NMeA]S(tBu)V[NMedβ3hAla][Sar][NMeF]T[NMeL]V[NMeL]P[NMeF]))
3. CC[C@H]1C(=O)N(C)[C@H](C)CC(=O)N[C@H](C(C)C)C(=O)N(C)[C@@H](CC(C)C)C(=O)N(C)[C@@H](C(C)C)C(=O)N[C@@H](C)C(=O)N(C)[C@@H](CC(C)C)C(=O)NCC(=O)N(C)[C@@H]([C@@H](C)O)C(=O)N(C)[C@@H](Cc2ccccc2)C(=O)N(C)[C@@H](CC)C(=O)N[C@@H](COC(C)(C)C)C(=O)N(C)[C@@H](C)C(=O)N(C)[C@@H](C(C)C)C(=O)N1C [pd071] (cyclo(A[NMeL]G[NMeT][NMeF][NMeAbu]S(tBu)[NMeA][NMeV][NMeAbu][NMedβ3hAla][dV][NMeL][NMeV]))

1: 42.4; 2: 14.1; 3: 6.2

---

# measurement-protocol: Metabolic stability test: liver microsomal stability assay
# Type: in vitro ADME, mouse
# condition-notes: male, pH 7.4; mouse liver microsomes 0.5 mg protein/mL, compound 1 µM, presence of NADPH; read-out: Mouse Hepatic Microsome CLh,int NADPH(+)
Starred links: 1 amine or outer side, 2 acyl side, 3 side chain; linkers in the order of their positions; H or OH if unused. Positions of bridges follow the written chain, without caps; N, C: chain ends. Non-standard residues stand in square brackets, D forms with d. Residues, ends and D or L forms follow the SMILES beside them. *: point of attachment. NMedβ3hAla = C[C@H](CC(=O)[*:2])N(C)[*:1]; NMeF = CN[C@@H](Cc1ccccc1)C(=O)O; NMeT = CN[C@H](C(=O)O)[C@@H](C)O; NMeβAla = CN(CCC(=O)[*:2])[*:1]; NMeD = CN[C@@H](CC(=O)O)C(=O)O; NMeL = CN[C@@H](CC(C)C)C(=O)O; NMeV = CN[C@H](C(=O)O)C(C)C; d(β3hA) = C[C@@H](N)CC(=O)O; NMeAbu = CC[C@H](NC)C(=O)O; NMeA = CN[C@@H](C)C(=O)O; Piperidide = C1CCN(*)CC1; Abu = CC[C@H](N)C(=O)O; βAla = NCCC(=O)O; Sar = CNCC(=O)O; tBu = CC(C)(C)*
// returns NOT MET unless microsomal CLint at 1 µM is strictly below 20 µL/min/mg, in which case MET

Example entries begin here.
compound	class
CC[C@H]1C(=O)N(C)CC(=O)N(C)[C@@H](CC(C)C)C(=O)N[C@@H](COC(C)(C)C)C(=O)N(C)[C@@H](C)C(=O)N(C)[C@@H](Cc2ccccc2)C(=O)N(C)CC(=O)N(C)[C@H](C(=O)N2CCCCC2)CC(=O)N[C@H](C(C)C)C(=O)N(C)[C@@H](Cc2ccccc2)C(=O)NCCC(=O)N(C)[C@@H](C(C)C)C(=O)N[C@@H]([C@@H](C)O)C(=O)N(C)[C@@H](CC(C)C)C(=O)N1C [pd094] ([dV][NMeF][βAla][NMeV]T[NMeL][NMeAbu][Sar][NMeL]S(tBu)[NMeA][NMeF][Sar][NMeD]-Piperidide; lactam N-14)	NOT MET
CC[C@H]1C(=O)N(C)[C@@H](C)C(=O)N[C@@H](CC(C)C)C(=O)N(C)[C@@H](C(C)C)C(=O)N[C@H](C)CC(=O)N[C@H](C(C)C)C(=O)N(C)[C@@H](CC(C)C)C(=O)N[C@@H](CC(C)C)C(=O)N(C)[C@@H](C(C)C)C(=O)N(C)[C@@H](CC(C)C)C(=O)N(C)CC(=O)N[C@@H]([C@@H](C)O)C(=O)N(C)[C@@H](Cc2ccccc2)C(=O)N[C@@H](COC(C)(C)C)C(=O)N1C [pd049] (cyclo(L[NMeV][NMeL][Sar]T[NMeF]S(tBu)[NMeAbu][NMeA]L[NMeV][d(β3hA)][dV][NMeL]))	NOT MET
CC[C@@H]1NC(=O)CN(C)C(=O)[C@H]([C@@H](C)O)NC(=O)[C@H](CC(C)C)N(C)C(=O)[C@H](C(C)C)NC(=O)[C@H](Cc2ccccc2)N(C)C(=O)[C@H](C)N(C)C(=O)[C@@H](C)NC(=O)C[C@@H](C)NC(=O)[C@H](C(C)C)N(C)C(=O)[C@H](Cc2ccccc2)N(C)C(=O)[C@H](COC(C)(C)C)NC(=O)[C@H](CC(C)C)N(C)C1=O [pd128] (cyclo([Abu][NMeL]S(tBu)[NMeF][NMeV][d(β3hA)][dA][NMeA][NMeF]V[NMeL]T[Sar]))	MET
CC[C@@H]1NC(=O)[C@H](Cc2ccccc2)N(C)C(=O)[C@@H]2CCCN2C(=O)[C@H](CC(C)C)N(C)C(=O)[C@H](CC)NC(=O)[C@H](C(C)C)NC(=O)[C@H](CC(C)C)N(C)C(=O)[C@H]([C@@H](C)O)NC(=O)[C@H](Cc2ccccc2)N(C)C(=O)CN(C)C(=O)C[C@@H](C)N(C)C(=O)[C@H](C(C)C)NC(=O)[C@H](CC)N(C)C(=O)[C@H](C)N(C)C1=O [pd070] (cyclo([Abu][NMeA][NMeAbu]V[NMedβ3hAla][Sar][NMeF]T[NMeL]V[Abu][NMeL]P[NMeF]))	MET
CC[C@@H]1NC(=O)[C@@H]2CCCN2C(=O)[C@H](C(C)C)NC(=O)[C@H](Cc2ccccc2)N(C)C(=O)[C@H](C)N(C)C(=O)[C@H](CC(C)C)N(C)C(=O)[C@H]([C@@H](C)O)N(C)C(=O)[C@H](CC(C)C)N(C)C(=O)[C@H](CC)NC(=O)[C@H](Cc2ccccc2)N(C)C(=O)CN(C)C(=O)C[C@@H](C(=O)N2CCCCC2)NC(=O)[C@H](C(C)C)N(C)C1=O [pd122] ([Sar][NMeF][Abu][NMeL][NMeT][NMeL][NMeA][NMeF]VP[Abu][NMeV]D-Piperidide; lactam N-13)	MET

Could you please tell me whether microsomal CLint at 1 µM recorded for CC[C@H](C)[C@@H]1NC(=O)[C@H](C)N(C)C(=O)C[C@@H](C(=O)N2CCCCC2)NC(=O)[C@H](CC)N(C)C(=O)[C@H](COC(C)(C)C)NC(=O)[C@H](CC(C)C)N(C)C(=O)[C@H](C)N(C)C(=O)[C@H](CC(C)C)N(C)C(=O)[C@H](Cc2ccccc2)N(C)C(=O)CN(C)C(=O)[C@H]([C@@H](C)O)NC(=O)[C@H](CC(C)C)N(C)C(=O)[C@H](Cc2ccccc2)N(C)C1=O [pd121] ([NMeA]I[NMeF][NMeL]T[Sar][NMeF][NMeL][NMeA][NMeL]S(tBu)[NMeAbu]D-Piperidide; lactam N-13) is less than 20 µL/min/mg?
NOT MET

Could you please tell me whether microsomal CLint at 1 µM recorded for CC[C@H](C)[C@@H]1NC(=O)[C@H](C)N(C)C(=O)[C@H]([C@@H](C)O)NC(=O)[C@H](Cc2ccccc2)N(C)C(=O)[C@H](COC(C)(C)C)NC(=O)[C@H](CC(C)C)N(C)C(=O)CN(C)C(=O)[C@H](Cc2ccccc2)N(C)C(=O)[C@H]([C@@H](C)CC)NC(=O)[C@H](CC(C)C)N(C)C(=O)CCN(C)C(=O)C[C@@H](C(=O)N2CCCCC2)NC(=O)[C@H](CC(C)C)N(C)C1=O [pd110] ([NMeβAla][NMeL]I[NMeF][Sar][NMeL]S(tBu)[NMeF]T[NMeA]I[NMeL]D-Piperidide; lactam N-13) is less than 20 µL/min/mg?
NOT MET

Could you please tell me whether microsomal CLint at 1 µM recorded for CC[C@@H]1NC(=O)[C@H](CC(C)C)N(C)C(=O)[C@H]([C@@H](C)CC)NC(=O)[C@H](CC(C)C)N(C)C(=O)C[C@@H](C)NC(=O)[C@H](C(C)C)N(C)C(=O)[C@H](CC(C)C)NC(=O)[C@H](CC)N(C)C(=O)[C@H](Cc2ccccc2)N(C)C(=O)[C@@H]2CCCN2C(=O)[C@H](CC(C)C)NC(=O)[C@H]([C@@H](C)O)N(C)C(=O)[C@H](C)NC(=O)[C@H](CC(C)C)N(C)C1=O [pd053] (cyclo(A[NMeT]LP[NMeF][NMeAbu]L[NMeV][d(β3hA)][NMeL]I[NMeL][Abu][NMeL])) is less than 20 µL/min/mg?
NOT MET
